Tested on: B16-F10
Protocol Description: Induction of apoptosis in mouse B16F10 cells assessed as total apoptotic cells at 2 X IC50 after 72 hrs by annexin V-FITC/propidium iodide staining-based FACS analysis (reference value: 13.7 +/- 2.7%)
Assay type: functional
Measurement Kind: Activity (%)
# number only, unit % dropped from output

Solved entries (count: 2):
Smiles Text: CC1(C)CC[C@]2(C(=O)O)CC[C@]3(C)C(=CC[C@@H]4[C@@]5(C)C[C@@H](O)[C@H](O)C(C)(C)[C@@H]5CC[C@]43C)[C@@H]2C1
Measurement Kind: Activity
Uom: %
Observed: 89.8

Smiles Text: CC(C)(CC(=O)O)CC(=O)O[C@H]1CC[C@]2(C)[C@H]3CC=C4[C@@H]5CC(C)(C)CC[C@]5(C(=O)OCc5ccccc5)CC[C@@]4(C)[C@]3(C)CC[C@H]2C1(C)C
Measurement Kind: Activity
Uom: %
Observed: 88.8

Now for another entry.
Ask: For the molecule CC1(C)CC[C@]2(C(=O)OCc3ccccc3)CC[C@]3(C)C(=CC[C@@H]4[C@@]5(C)CC[C@H](OC(=O)CCCC(=O)O)C(C)(C)[C@@H]5CC[C@]43C)[C@@H]2C1 , what Activity is on record?
Result: 90.4
